Assignment: determine reported pIC50 for the given compounds.
- Tested on: WM3928 cells
- ASSAY_SUMMARY: WM3928 Cell Proliferation Assay (1)
- Format: cell-based
pIC50: −log10 of the molar value.

Reported pIC50 ( Cc1ccc(NC(=O)c2cc(C(C)(C)C)on2)cc1-c1cncc(-c2cc(NC(=O)C3CC3)ncn2)c1 ) = ≥ 7.00

Reported pIC50 ( COC(=O)Nc1cc(-c2cccc(-c3cc(NC(=O)c4ccnc(C(C)(C)F)c4)cnc3C)c2)ncn1 ) = 6.30 to 7.00

Reported pIC50 ( Cc1ccc(NC(=O)c2ccnc(C(F)F)c2)cc1-c1ccnc(-c2ccnc(NC(=O)C3CC3)c2)n1 ) = ≥ 7.00

Reported pIC50 ( Cc1ccc(NC(=O)c2ccnc(C(C)(C)C#N)c2)cc1-c1cncc(-c2cc(NC(=O)C3CC3)ncn2)c1 ) = ≥ 7.00

Reported pIC50 ( CNC(=O)c1cc(-c2cc(-c3cc(NC(=O)c4ccnc(C(C)(C)OC)c4)ccc3C)ccn2)ccn1 ) = ≥ 7.00

Reported pIC50 ( Cc1ccc(NC(=O)c2cnn(C3CC3)c2)cc1-c1cncc(-c2cc(NC(=O)C3CC3)ncn2)c1 ) = ≥ 7.00

Reported pIC50 ( CNC(=O)c1cc(-c2cc(-c3cc(C(=O)Nc4ccnc(C(C)(C)C#N)c4)ccc3C)ccn2)ccn1 ) = 6.30 to 7.00

Reported pIC50 ( CC(=O)Nc1cc(-c2cncc(-c3cc(NC(=O)c4ccnc(C5(C#N)CC5)c4)ccc3C)n2)ccn1 ) = ≥ 7.00

Reported pIC50 ( COC(=O)Nc1cc(-c2cnnc(-c3cc(NC(=O)c4cn(C(C)C)nn4)ccc3C)c2)ccn1 ) = 5.00 to 6.00

Reported pIC50 ( CC(=O)Nc1cc(-c2nccc(-c3cc(NC(=O)c4ccnc(C5CC5)c4)ccc3C)n2)ccn1 ) = ≥ 7.00

Reported pIC50 ( CC(=O)Nc1cc(-c2nccc(-c3cc(NC(=O)c4ccnc(C(F)(F)F)c4)cnc3C)n2)ccn1 ) = 6.30 to 7.00

Reported pIC50 ( COC(=O)Nc1cc(-c2cccc(-c3cc(NC(=O)c4ccnc(C5CC5)c4)cnc3C)c2)ccn1 ) = 5.00 to 6.00

Reported pIC50 ( COC(=O)Nc1cc(-c2cccc(-c3cc(NC(=O)Cn4cc(C(C)C)nn4)cnc3C)c2)ccn1 ) = 5.00 to 6.00

Reported pIC50 ( CNC(=O)c1cc(-c2cncc(-c3cc(NC(=O)c4ccnc(C(C)(C)F)c4)ccc3C)c2)ncn1 ) = ≥ 7.00

Reported pIC50 ( Cc1ncc(NC(=O)c2ccnc(C3CC3)c2)cc1-c1cccc(-c2ncnc3[nH]ncc23)c1 ) = 5.00 to 6.00

Reported pIC50 ( CNc1cc(-c2cccc(-c3cc(NC(=O)c4ccnc(C(C)(C)C#N)c4)ccc3C)c2)ncn1 ) = ≥ 7.00

Reported pIC50 ( Cc1ncc(NC(=O)c2ccnc(C(C)(C)C#N)c2)cc1-c1cccc(-c2cnc3ccccn23)c1 ) = 5.00 to 6.00

Reported pIC50 ( Cc1ccc(NC(=O)c2ccnc(C(C)(C)C#N)c2)cc1-c1ccnc(-c2ccnc(N)c2)c1 ) = 6.00 to 6.30

Reported pIC50 ( Cc1ccc(NC(=O)c2ccnc(C(C)(C)C#N)c2)cc1-c1cccc(-c2cc(N)ncn2)c1 ) = 6.30 to 7.00

Reported pIC50 ( Cc1ccc(NC(=O)c2ccnc(C3CC3)c2)cc1-c1cncc(-c2ccnc(NC(=O)C3CC3)c2)n1 ) = ≥ 7.00

Reported pIC50 ( CNC(=O)c1cc(-c2ccnc(-c3cc(NC(=O)CCC4(F)CC4)ccc3C)c2)ccn1 ) = 5.00 to 6.00

Reported pIC50 ( Cc1ccc(NC(=O)c2cccc(C(C)(C)C#N)c2)cc1-c1cccc(-c2cc(NC(=O)C3CC3)ncn2)c1 ) = ≥ 7.00

Reported pIC50 ( COC(=O)Nc1cc(-c2cc(-c3cc(NC(=O)c4ccnc(C(C)(C)F)c4)ccc3C)cc(OCCO)n2)ccn1 ) = ≥ 7.00

Reported pIC50 ( Cc1ncc(NC(=O)C2CCOC(C)(C)C2)cc1-c1cccc(-c2cc(NC(=O)C3CC3)ncn2)c1 (centres unmarked) ) = 5.00 to 6.00

Reported pIC50 ( Cc1ccc(NC(=O)c2ccnc(S(C)(=O)=O)c2)cc1-c1cc(-c2ccnc(NC(=O)C3CC3)c2)cnn1 ) = 5.00 to 6.00

Reported pIC50 ( COC(=O)Nc1cc(-c2cc(-c3cc(NC(=O)c4ccnc(C(C)(C)F)c4)ccc3C)nc(C)n2)ccn1 ) = ≥ 7.00

Reported pIC50 ( Cc1cc(F)c(NC(=O)c2cnnc(C3CC3)c2)cc1-c1ccnc(-c2ccnc(NC(=O)C3CC3)c2)n1 ) = 6.00 to 6.30

Reported pIC50 ( CNC(=O)c1cc(-c2nc(-c3cc(NC(=O)c4ccnc(C(C)(C)C#N)c4)ccc3C)cc(C3CC3)n2)ccn1 ) = 6.30 to 7.00

Reported pIC50 ( Cc1ncc(NC(=O)c2ccnc(C3CC3)c2)cc1-c1ccnc(-c2ccnc(NC(=O)C3CC3)c2)n1 ) = 6.30 to 7.00
